Data credit: patent US12433877B2

Test: clinical
Details: human, in vivo

compound: CCCCN1CCCCC1C(=O)Nc1c(C)cccc1C (stereo not shown)
value-units: µg/mL
Cmax: 2.85

###

Assay: clinical
Conditions: human, in vivo, t1/2 (min, max), free bupivacaine
Where a name gives a salt, the structure may show the parent alone.

compound: CCCCN1CCCCC1C(=O)Nc1c(C)cccc1C (stereo not shown) [Bupivacaine HCl]
half-life: 2.9 to 15.2 h

###

Assay: clinical
Conditions: human, in vivo
Where a name gives a salt, the structure may show the parent alone.

molecule: CCCCN1CCCCC1C(=O)Nc1c(C)cccc1C (stereo not shown) [Bupivacaine HCl]
Tmax: 0.92 to 12 h

###

Assay: clinical
Conditions: human, in vivo
Structures can show the parent of a compound that is named as a salt.
endpoint: AUC(0-t)

molecule: CCCCN1CCCCC1C(=O)Nc1c(C)cccc1C (stereo not shown) [Bupivacaine HCl]
assay-value: 249 to 1900 ng·h/mL
